Test system: Cabbage Looper [Trichoplusia ni (Hubner)]
protocolNotes: Cabbage looper insecticidal test
Assay type: in vivo
conditionLabel: second-instar larvae, percent in solution; 3-5 days
Procedure: The compounds in Tables 1 and 2 above were tested for insecticidal activity using the following testing procedures. LC50 values, based on the results of these tests and calculated according to dosage-mortality curves, are expressed in Table 3. Cabbage Looper [Trichoplusia ni (Hubner)]: Test compounds were diluted in a 50-50 acetone-water solution. […] Mortality of the larvae was recorded 3-5 days later. […]
Returns: string. Value is met if measured LC50, CL is below 0.006%, and not met if it is greater than or equal to it.

In [3]: df
Out[3]:
                                    compound  assignedcategory
 0  Fc1ccc(COC(=Nc2ccc(C(F)(F)F)cc2)C2CC2)cc1Oc1ccccc1               met
 1  CC(C)C(=Nc1ccc(F)c(F)c1)OCc1ccc(F)c(Oc2ccc(Cl)cc2)c1               met
 2  CC(C)C(=Nc1cc(Cl)ccc1Cl)OCc1cccc(Oc2ccccc2)c1           not met
 3  CC1(C)C(C(=Nc2ccc(F)c(Cl)c2)OCc2cccc(Oc3ccccc3)c2)C1(C)C           not met
 4  CC(C)C(=Nc1ccc(C(C)C)cc1)OCc1cccc(Oc2ccc(F)cc2)c1               met
 5  COc1ccc(Oc2cccc(COC(=Nc3ccc(F)cc3)C(C)C)c2)cc1           not met
 6  CCC(C)C(=Nc1ccc2c(c1)OCO2)OCc1cccc(Oc2ccccc2)c1 (centres unmarked)               met
 7  CC(C)C(=Nc1ccc(F)c(Cl)c1)OC(C)c1cccc(Oc2ccccc2)n1 (centres unmarked)               met
 8  CC(C)C(=Nc1ccc(C(F)(F)F)c(Cl)c1)OCc1cccc(Oc2ccccc2)c1           not met
 9  CC(C)C(=Nc1cccc(C(F)(F)F)c1)OCc1cc(Oc2ccc(F)cc2)ccn1           not met
10  CC(C)C(=Nc1ccc2c(c1)OC(C)(C)O2)OCc1cccc(Oc2ccc(Cl)cc2)c1               met
11  CC(Cl)C(=Nc1ccc(Cl)cc1)OCc1cccc(Oc2ccccc2)c1 (centres unmarked)           not met
12  Cc1cc(N=C(OCc2ccc(F)c(Oc3ccccc3)c2)C(C)C)ccc1F               met
13  CC(C)C(=Nc1ccc([N+](=O)[O-])c(C(F)(F)F)c1)OCc1cccc(Oc2ccccc2)c1               met
14  Cc1ccc(N=C(OCc2cccc(Oc3ccccc3)c2)C(C)C)cc1F               met
15  CC(C)C(=Nc1ccc(F)cc1F)OCc1cccc(Oc2ccccc2)c1               met

====

Test system: Cabbage Looper [Trichoplusia ni (Hubner)]
protocolNotes: Cabbage looper insecticidal test
Assay type: in vivo
conditionLabel: second-instar larvae, percent in solution; 3-5 days
Description: The compounds in Tables 1 and 2 above were tested for insecticidal activity using the following testing procedures. LC50 values, based on the results of these tests and calculated according to dosage-mortality curves, are expressed in Table 3. Cabbage Looper [Trichoplusia ni (Hubner)]: Test compounds were diluted in a 50-50 acetone-water solution. […] Mortality of the larvae was recorded 3-5 days later. […]
Each entry below lists one item and its recorded LC50, CL value.
readoutKind: LC50, CL

In [3]: df
Out[3]:
                                 smilescode  readoutkind  measurement
0  Cc1cc(N=C(OCc2cccc(Oc3ccc(Cl)cc3)c2)C(C)C)ccc1F     LC50, CL      0.0019%
1  CCOc1cccc(N=C(OCc2ccc(F)c(Oc3ccc(F)cc3)c2)C(C)C)c1     LC50, CL       0.002%
2  CC(C)C(=Nc1cccc(C(F)(F)F)c1)OCc1ccc(F)c(Oc2ccc(F)cc2)c1     LC50, CL    0.000025%
3  CC(C)C(=Nc1ccc(F)c(F)c1)OCc1cccc(Oc2ccc(C#N)cc2)c1     LC50, CL      0.0005%
4  CC(C)C(=Nc1ccc(F)c(F)c1)OCc1ccc(F)c(Oc2ccc(F)cc2)c1     LC50, CL     0.00002%
5  CC(C)(F)C(=Nc1ccc(F)c(Cl)c1)OCc1cccc(Oc2ccc(F)cc2)c1     LC50, CL     0.00017%
6  CC(C)C(=Nc1cccc(C(F)(F)F)c1)OCc1cccc(OCc2ccc(F)cc2)c1     LC50, CL       < 0.1%
7  CC(C)C(=Nc1ccc(F)cc1)OCc1cccc(Oc2ccc(F)cc2F)c1     LC50, CL      0.0017%
